Source of measurements: the supplement of paper PMC12667976

B1: library; numbered along this chain (parent)
chain: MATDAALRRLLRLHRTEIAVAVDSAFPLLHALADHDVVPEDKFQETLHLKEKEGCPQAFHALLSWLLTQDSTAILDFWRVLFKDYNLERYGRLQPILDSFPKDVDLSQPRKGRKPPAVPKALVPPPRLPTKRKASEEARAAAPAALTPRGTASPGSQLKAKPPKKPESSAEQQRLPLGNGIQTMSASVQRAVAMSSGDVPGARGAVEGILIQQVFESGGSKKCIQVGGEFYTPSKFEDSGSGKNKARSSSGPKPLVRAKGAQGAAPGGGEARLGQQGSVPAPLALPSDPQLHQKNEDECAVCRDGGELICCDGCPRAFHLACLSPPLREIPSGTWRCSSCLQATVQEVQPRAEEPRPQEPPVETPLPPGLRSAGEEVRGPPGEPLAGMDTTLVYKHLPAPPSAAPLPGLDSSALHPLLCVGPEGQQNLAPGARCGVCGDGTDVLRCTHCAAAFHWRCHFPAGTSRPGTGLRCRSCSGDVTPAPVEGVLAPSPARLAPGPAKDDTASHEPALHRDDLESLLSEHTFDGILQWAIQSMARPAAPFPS

variants of: B1; test: AIRE transcriptional activation functional score (insulin promoter-GFP; nonsense median 0, synonymous median 1) (normalised score); higher = higher AIRE activity (more reporter activation); conditions: with insulin promoter-GFP reporter in HEK293
endpoint: AIRE transcriptional activation functional score
Numbers only.

A271F : 0.885

For every item below, please supply its AIRE transcriptional activation functional score.
1. V377M
2. V226A
3. A142G
4. D23E
5. V37G

OUTPUT:
1. 0.944
2. 0.677
3. 1.29
4. 1.02
5. 0.192

Each of the following entries comes with a recorded value; kindly state AIRE transcriptional activation functional score for each.
1. G218H
2. T463M
3. L470P
4. S249E
5. I309Q

OUTPUT:
1. 1.03
2. 1.51
3. 0.863
4. -0.0377
5. 0.905
